I'd appreciate it if you could supply pIC50 values for the items below.
A value of pIC50 is the negative decimal logarithm of a concentration given in moles per litre.

stdin: Check β-glucuronidase (bovine liver) (Bos taurus, UniProt A3KMY8) data and give pIC50 for O=C(O)CCN1C[C@H](O)[C@@H](O)[C@H](O)[C@H]1CO [DNJ-N-propanoic, DNJ-N-propanoic acid] .
stdout: 3.47

stdin: Check β-glucuronidase (bovine liver) (Bos taurus, UniProt A3KMY8) data and give pIC50 for O=C(O)CN1C[C@H](O)[C@@H](O)[C@H](O)[C@H]1CO [DNJ-N-ethanoic, DNJ-ethanoic acid] .
stdout: 3.68

stdin: Check β-glucuronidase (bovine liver) (Bos taurus, UniProt A3KMY8) data and give pIC50 for O=C(O)CN1C[C@@H](O)[C@H](O)[C@H]1CO [DAB-N-ethanoic, DAB-N-ethanoic acid] .
stdout: 3.28

Entry source: patent US11484561B2
